System: UACC-257 melanoma
Test: NCI tumour cell line growth inhibition, 48 h
property-measured: TGI (µM)

• CC1C(c2ccccc2O)c2cc3c(cc2OC1N1CCOCC1)OCO3 (stereo unspecified) = 47
• COC1=CC(=O)C2=C(C[C@@]3(C)C(=C2)C(CO)=CC[C@H]3O)C1=O = 36.9
• CCCCCCCCOC(=O)c1cc([N+](=O)[O-])c(Sc2ncnc3nc[nH]c23)c([N+](=O)[O-])c1 = 28
• O=[N+]([O-])c1cc2c([N+](=O)[O-])cccc2o1 = 21.8
• O=C(C/C=C/c1ccccc1)c1ccccc1 = 72.1

###

Tested on: MCF7 breast
Test: NCI tumour cell line growth inhibition, 48 h
property-measured: TGI

• S=C=NC1CCC(c2cc3ccccc3s2)(N2CCCCC2)CC1 (centres undefined) = 5.72 µM
• Cn1c2ccccc2c2c(=O)n(CCCC(=O)OC(=NC3CCCCC3)NC3CCCCC3)c3c(-c4ccccc4)nnn3c21 = > 100 µM
• CCCCC(=O)Nc1ccc2c(C)cc(-c3ccc(-c4cc(-c5ccc(C)cc5)cc(-c5ccc(-c6cc(C)c7ccc(NC(=O)CCCC)nc7n6)cc5)n4)cc3)nc2n1 = > 100 µM
• COc1ccc(/C=C/C(=O)c2ccc(OC(=O)/C=C/c3ccccc3)cc2)cc1 = > 100 µM

Where do the numbers come from? From PubChem BioAssay (NCI).
